molecular target: FGFR2 (human) (UniProt P21802); assay: KINOMEscan competition binding; conditions: compound 10.0 µM
Sequence (P21802 whole entry, looked up): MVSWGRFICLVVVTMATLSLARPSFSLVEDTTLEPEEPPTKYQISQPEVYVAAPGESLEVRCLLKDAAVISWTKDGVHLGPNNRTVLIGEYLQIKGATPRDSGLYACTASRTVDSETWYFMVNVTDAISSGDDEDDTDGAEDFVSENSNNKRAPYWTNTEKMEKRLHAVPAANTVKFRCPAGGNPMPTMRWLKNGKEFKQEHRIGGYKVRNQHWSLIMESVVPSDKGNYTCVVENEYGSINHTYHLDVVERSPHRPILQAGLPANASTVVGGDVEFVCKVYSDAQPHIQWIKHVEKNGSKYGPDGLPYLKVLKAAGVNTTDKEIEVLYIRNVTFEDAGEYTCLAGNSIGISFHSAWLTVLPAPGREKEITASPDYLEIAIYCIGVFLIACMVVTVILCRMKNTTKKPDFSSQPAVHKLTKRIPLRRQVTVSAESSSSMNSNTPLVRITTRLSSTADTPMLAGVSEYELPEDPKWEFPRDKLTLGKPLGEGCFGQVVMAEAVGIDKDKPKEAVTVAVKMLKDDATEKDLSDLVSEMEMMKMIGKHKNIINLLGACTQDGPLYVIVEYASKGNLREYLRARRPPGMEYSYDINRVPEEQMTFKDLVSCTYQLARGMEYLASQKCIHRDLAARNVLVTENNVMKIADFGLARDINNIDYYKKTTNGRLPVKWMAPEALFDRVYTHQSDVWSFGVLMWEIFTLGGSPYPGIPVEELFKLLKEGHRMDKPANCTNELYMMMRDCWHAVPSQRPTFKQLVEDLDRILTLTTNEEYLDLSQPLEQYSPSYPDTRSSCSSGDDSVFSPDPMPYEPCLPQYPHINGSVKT
MEASURED_ATTRIBUTE: kinase still bound, per cent of control (%)

[[record]]
compound = "COc1ccc(N(C(=O)Oc2cc(C(=O)Nc3cccc(C(F)(F)F)c3)ccc2C)c2ccnc(Nc3ccc(N4CCN(C)CC4)cc3)n2)c(OC)c1"
measurement_unit = "%"
reported_value = 3.4

[[record]]
compound = "COc1cc2ncnc(Nc3cccc(Cl)c3)c2cc1OC"
measurement_unit = "%"
reported_value = 99

[[record]]
compound = "CCc1nc(-c2cccc(C)c2)c(-c2ccnc(NC(=O)c3ccccc3)c2)s1"
measurement_unit = "%"
reported_value = 71

[[record]]
compound = "N#Cc1cc(-c2ccnc(Nc3ccc(-n4cnc(-c5cccnc5)n4)cc3)n2)cc(N2CCOCC2)c1"
measurement_unit = "%"
reported_value = 91

[[record]]
compound = "Cc1cn(-c2cc(C(=O)Nc3ccc(C)c(NC(=O)c4ccno4)c3)cc(C(F)(F)F)c2)cn1"
measurement_unit = "%"
reported_value = 100

[[record]]
compound = "CCN1CCN(Cc2ccc(NC(=O)c3ccc(C)c(/C=C/c4cnc5[nH]ccc5c4OC)c3)cc2C(F)(F)F)CC1"
measurement_unit = "%"
reported_value = 3.7

[[record]]
compound = "CC1=C(C(=O)Nc2cc3cn[nH]c3cc2F)C(c2ccc(C(F)(F)F)cc2)CC(=O)N1 (stereo not drawn)"
measurement_unit = "%"
reported_value = 95

[[record]]
compound = "COc1cc(N2CCC(C(N)=O)CC2)ccc1Nc1nc(N)c(Cl)c(Nc2ccccc2S(=O)(=O)C(C)C)n1"
measurement_unit = "%"
reported_value = 100

[[record]]
compound = "COc1cc2c(Nc3ccc(NC(=O)c4ccccc4)cc3)ncnc2cc1OCCCN1CCOCC1"
measurement_unit = "%"
reported_value = 89

[[record]]
compound = "CCCS(=O)(=O)Nc1ccc(F)c(C(=O)c2c[nH]c3ncc(Cl)cc23)c1F"
measurement_unit = "%"
reported_value = 59

[[record]]
compound = "C=CC(=O)Nc1ccc(C(=O)c2sc(Nc3ccc(N4CCN(C)CC4)cc3OC)nc2N)cc1"
measurement_unit = "%"
reported_value = 49

[[record]]
compound = "CCOc1cc(N2CCC(O)CC2)ccc1Nc1ncc2c(n1)N(C)c1ccccc1C(=O)N2C"
measurement_unit = "%"
reported_value = 100

[[record]]
compound = "CNC(=O)Nc1ccc(-c2nc(N3CC4CCC(C3)O4)c3cnn(C4CCC5(CC4)OCCO5)c3n2)cc1"
measurement_unit = "%"
reported_value = 92

[[record]]
compound = "CCN(CCO)CCCOc1ccc2c(Nc3cc(CC(=O)Nc4cccc(F)c4)[nH]n3)ncnc2c1"
measurement_unit = "%"
reported_value = 80

[[record]]
compound = "COc1cc(C)c(Sc2cnc(NC(=O)c3ccc(CNC(C)C(C)C)cc3)s2)cc1C(=O)N1CCN(C(C)=O)CC1 (stereo not drawn)"
measurement_unit = "%"
reported_value = 100

[[record]]
compound = "N#C/C(=C1/Nc2ccccc2S1)c1ccnc(NCCc2cccnc2)n1"
measurement_unit = "%"
reported_value = 100

[[record]]
compound = "CC(=O)c1c(C)c2cnc(Nc3ccc(N4CCNCC4)cn3)nc2n(C2CCCC2)c1=O"
measurement_unit = "%"
reported_value = 95

[[record]]
compound = "O=c1[nH]c2ccccc2n1C1CCN(Cc2ccc(-c3nc4cc5[nH]cnc5cc4nc3-c3ccccc3)cc2)CC1"
measurement_unit = "%"
reported_value = 100


Origin of the recorded values: the kinase profiling compilation of Christmann-Franck et al. (2016)
